- System: EZH2
- test-name: 3' UTR reporter interaction score (median-centred robust z-score of log2 firefly/Renilla activity); higher = less repression of the 3' UTR reporter
- measurement-setup: HEK293T; 48 h
We'd kindly ask you to apply these 3' UTR reporter interaction score classes: bin A = under -0.2, bin B = from -0.2 up to 0.4, bin C = 0.4 and over

* UCUUUGGUUAUCUAGCUGUAUGA | bin C
* AAACCUGUGUUGUUCAAGAGUC | bin C
* UAAAGUGCUUAUAGUGCAGGUAG | bin A
* GCUAGUCCUGACUCAGCCAGU | bin B
* GUUGGAGGAUGAAAGUACGGAGUGAU | bin B

Please examine the following record next.
// bin(item) where item = AGAGGUAUAGGGCAUGGGAAAA
bin B

* * *

For each record, write down the corresponding 3' UTR reporter interaction score.
- Test system: MYB
- test-name: 3' UTR reporter interaction score (median-centred robust z-score of log2 firefly/Renilla activity); higher = less repression of the 3' UTR reporter
- measurement-setup: HEK293T; 48 h
Numbers only.

Reference set, count: 3
• GAGUGCCUUCUUUUGGAGCGU = -0.982
• UGUAGUGUUUCCUACUUUAUGGA = 0.85
• AUCAUAGAGGAAAAUCCAUGUU = 0.366

Okay, now this sequence:
Briefly, 3' UTR reporter interaction score measured for UAACACUGUCUGGUAAAGAUGG : 0.229

* * *

- Tested on: HRAS
- test-name: 3' UTR reporter interaction score (median-centred robust z-score of log2 firefly/Renilla activity); higher = less repression of the 3' UTR reporter
- measurement-setup: HEK293T; 48 h
measure-name: 3' UTR reporter interaction score

Worked set:
* AAAACGGUGAGAUUUUGUUUU | -0.201
* AUGAUCCAGGAACCUGCCUCU | -0.133
* UGGAAUGUAAGGAAGUGUGUGG | 0.0317
* CAGCAGCAAUUCAUGUUUUGAA | -0.93
* UUUGUUCGUUCGGCUCGCGUGA | -0.635
* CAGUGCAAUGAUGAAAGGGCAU | -0.234

I have 3 sequences here; please give me 3' UTR reporter interaction score for each one.
1. AUUCAUUUGGUAUAAACCGCGAU
2. GGCAAGAUGCUGGCAUAGCUG
3. AAAGUGCUUCCUUUUAGAGGG

1: 0.347; 2: 0.647; 3: 0.261

* * *

- System: NOTCH1
- test-name: 3' UTR reporter interaction score (median-centred robust z-score of log2 firefly/Renilla activity); higher = less repression of the 3' UTR reporter
- measurement-setup: HEK293T; 48 h
Decide using 3' UTR reporter interaction score: a value greater than or equal to -0.07 is Satisfied, a smaller one is Not satisfied.

Look over these answered cases.
- UUUAACAUGGGGGUACCUGCUG: Not satisfied
- CAUCUUACCGGACAGUGCUGGA: Satisfied
- ACUGGGGGCUUUCGGGCUCUGCGU: Satisfied
- UGAGCUAAAUGUGUGCUGGGA: Not satisfied
- UCCAGCAUCAGUGAUUUUGUUGA: Not satisfied

Hi team, for AAAGCGCUUCCCUUUGCUGGA , is the recorded 3' UTR reporter interaction score at or above -0.07?
Satisfied

Has AUCGGGAAUGUCGUGUCCGCC a recorded 3' UTR reporter interaction score greater than or equal to -0.07?
Not satisfied

Reported 3' UTR reporter interaction score reaches at least -0.07 for UCCAGCUCCUAUAUGAUGCCUUU ?
Not satisfied

Does the sequence AAGUGCUGUCAUAGCUGAGGUC have recorded 3' UTR reporter interaction score that is -0.07 or more?
Not satisfied

Entry UGUCUGCCCGCAUGCCUGCCUCU : is its 3' UTR reporter interaction score no less than -0.07?
Not satisfied

Please indicate if the recorded 3' UTR reporter interaction score for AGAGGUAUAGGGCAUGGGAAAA meets or exceeds -0.07.
Satisfied

Kindly determine if 3' UTR reporter interaction score recorded for AUGGAGAUAGAUAUAGAAAU is above or exactly -0.07.
Not satisfied

I'd appreciate it if you could say whether UCGUGCAUCCCUUUAGAGUGUU has 3' UTR reporter interaction score at least equal to -0.07.
Not satisfied

State whether the measured 3' UTR reporter interaction score reaches -0.07, counting equality as reaching it, for UAUGUGGGAUGGUAAACCGCUU
Satisfied

State whether the measured 3' UTR reporter interaction score reaches -0.07, counting equality as reaching it, for CAAAACUGGCAAUUACUUUUGC
Satisfied

Please tell me: is the sequence UACAGUAUAGAUGAUGUACUAG at or over -0.07 in terms of 3' UTR reporter interaction score?
Satisfied

Determine whether this sequence has 3' UTR reporter interaction score no lower than -0.07: AACUGGCCCUCAAAGUCCCGCUUU
Not satisfied

Kindly determine if 3' UTR reporter interaction score recorded for UAAGUGCUUCCAUGUUUUGGUGA is above or exactly -0.07.
Satisfied

Form field: 3' UTR reporter interaction score at least -0.07? Entry: AUUCCUAGAAAUUGUUCAUA
Satisfied

Confirm if 3' UTR reporter interaction score reported for the sequence UCUUGUGUUCUCUAGAUCAGU is -0.07 or above.
Satisfied

Hi team, for UGUGCUUGCUCGUCCCGCCCGCAG , is the recorded 3' UTR reporter interaction score at or above -0.07?
Satisfied

Reported 3' UTR reporter interaction score reaches at least -0.07 for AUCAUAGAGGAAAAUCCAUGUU ?
Satisfied

// inclusive: 3' UTR reporter interaction score at least -0.07? input: ACUCAAAACCCUUCAGUGACUU
Satisfied

Assess whether reported 3' UTR reporter interaction score for AUUCUAAUUUCUCCACGUCUUUG sits at -0.07 or higher.
Not satisfied

Could you tell me if the measured 3' UTR reporter interaction score of UUGGUCCCCUUCAACCAGCUA reaches -0.07 or more?
Not satisfied

* * *

Please go through the items and note down their 3' UTR reporter interaction score.
- Test system: EZH2
- test-name: 3' UTR reporter interaction score (median-centred robust z-score of log2 firefly/Renilla activity); higher = less repression of the 3' UTR reporter
- measurement-setup: HEK293T; 48 h
Answers are plain numbers.

* CACACACUGCAAUUACUUUUGC | 0.0197

Here are 2 sequences. What values of 3' UTR reporter interaction score were reported for them?
1. AACAUUCAACCUGUCGGUGAGU
2. AAUCCUUUGUCCCUGGGUGAGA

1. -0.0307
2. -0.257

* * *

- Test system: RB1
- test-name: 3' UTR reporter interaction score (median-centred robust z-score of log2 firefly/Renilla activity); higher = less repression of the 3' UTR reporter
- measurement-setup: HEK293T; 48 h
Answer each item with its documented 3' UTR reporter interaction score.
Give bare numbers.

- ACUUGUAUGCUAGCUCAGGUAG: 0.468
- AGUGGGGAACCCUUCCAUGAGGA: 0.472
- UUAAGGCACGCGGUGAAUGCCA: -1.9
- UGAUUGGUACGUCUGUGGGUAGA: 0.153
- UCUCUGGAGGGAAGCACUUUCUG: -0.609
- GCGACCCAUACUUGGUUUCAG: -1.26
- UGAGACCUCUGGGUUCUGAGCU: 0.176
- GUGUCUGCUUCCUGUGGGA: -0.362
- UGCUGACUCCUAGUCCAGGGC: 2.05
- AAGCUGCCAGUUGAAGAACUGU: 0.935

Go through the items and report each one's 3' UTR reporter interaction score.
1. AGACCUGGCCCAGACCUCAGC
2. UAUGUAAUAUGGUCCACAUCUU
3. UAUACAAGGGCAAGCUCUCUGU
4. UAUUGCACUUGUCCCGGCCUG

[-2.21, 0.421, 0.0344, 1.41]

Take each entry in turn and give its 3' UTR reporter interaction score.
1. AAAGCGCUUCUCUUUAGAGGA
2. ACUUCACCUGGUCCACUAGCCGU

1: -0.785; 2: 1.16

State the recorded 3' UTR reporter interaction score for every item in the following list.
1. AAAGUGCUGUUCGUGCAGGUAG
2. ACUCCAGCCCCACAGCCUCAGC
3. AAGCCUGCCCGGCUCCUCGGG
4. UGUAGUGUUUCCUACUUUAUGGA

0.0538
0.647
-0.201
-0.511

# per-item lookup of 3' UTR reporter interaction score; items listed below
1. UAGCAGCGGGAACAGUUCUGCAG
2. UGUGACAGAUUGAUAACUGAAA
3. UGUAACAGCAACUCCAUGUGGA
4. UGGCUCAGUUCAGCAGGAACAG

1. 0.756
2. 0.581
3. -0.726
4. 0.0253

* * *

- Tested on: FBXW7
- test-name: 3' UTR reporter interaction score (median-centred robust z-score of log2 firefly/Renilla activity); higher = less repression of the 3' UTR reporter
- measurement-setup: HEK293T; 48 h
Please mark label 1 if the recorded 3' UTR reporter interaction score is equal to or greater than -0.02, and label 0 if it falls below.

Example results:
- AAACUACUGAAAAUCAAAGAU: label 0
- AGUGUGGCUUUCUUAGAGC: label 1
- GGCAGGUUCUCACCCUCUCUAGG: label 0
- AAUCGUACAGGGUCAUCCACUU: label 1
- GUCCCUCUCCAAAUGUGUCUUG: label 0

# input for lookup
Does the reported 3' UTR reporter interaction score for UUCCCUUUGUCAUCCUUCGCCU fall at or above the -0.02 mark?
label 0
